Each recorded value in this set is attributed to ChEMBL document CHEMBL1155006.

# System: Human immunodeficiency virus 1
# Test summary: Antiviral activity against HIV1 in human MT4 cells
# Type: functional, organism-based
# Run conditions: Human immunodeficiency virus 1, MT4
pEC50: −log10 of the molar value.
Measurement name: pEC50

Cc1cn([C@H]2C[C@H](SS[C@H]3C[C@H](n4cc(C)c(O)nc4=O)O[C@@H]3CO)[C@@H](CO)O2)c(=O)nc1O | 4.80
Nc1ccn(C2C[C@H](S)[C@@H](CO)O2)c(=O)n1 (single isomer, unassigned) | 4.70

###

Recorded pEC50 values for a group of compounds are listed next.
# System: Moloney murine sarcoma virus
# Test summary: Inhibition of murine sarcoma virus-induced transformation of mouse embryo fibroblast C3H/3T3 cells after 6 days
# Run conditions: C3H/3T3, 144 h
Answer as the number alone; pEC50 is minus log10 of concentration in mol/L.

Guide cases for pEC50, answers given:
CSS[C@H]1C[C@H](n2cc(C)c(=O)[nH]c2=O)O[C@@H]1CO | 5.08
CSS[C@H]1C[C@H](n2ccc(N)nc2=O)O[C@@H]1CO | 4.32
Nc1ncnc2c1ncn2CCOCP(=O)(O)O [ADEFOVIR] | 6.28

Dear colleague, I am looking for the recorded pEC50 of the following compound: CCCCSS[C@H]1C[C@H](n2cc(C)c(=O)[nH]c2=O)O[C@@H]1CO 6.00

Dear colleague, I am looking for the recorded pEC50 of the following compound: C=CCSS[C@H]1C[C@H](n2cc(C)c(=O)[nH]c2=O)O[C@@H]1CO 5.66

###

# Test summary: Cytotoxicity against human MT4 cells
# Assay type: cell-based
Measurement name: CC50 (µM)
Response body: numeric value in µM, unit text excluded.

Dear colleague, I am looking for the recorded CC50 of the following compound: Cc1cn([C@H]2C[C@H](SS[C@H]3C[C@H](n4cc(C)c(O)nc4=O)O[C@@H]3CO)[C@@H](CO)O2)c(=O)nc1O 34

###

Recorded EC50 values for a group of molecules are listed next.
# Tested on: Human immunodeficiency virus 2
# Test summary: Antiviral activity against HIV2 ROD in TK1 deficient human CEM cells assessed as inhibition of virus-induced cytopathogenicity
# Type: functional, organism-based
# Run conditions: Human immunodeficiency virus 2, ROD, CCRF-CEM

Dear colleague, I am looking for the recorded EC50 of the following molecule: CSS[C@H]1C[C@H](n2ccc(N)nc2=O)O[C@@H]1CO 45 µM

Dear colleague, I am looking for the recorded EC50 of the following molecule: Cc1cn([C@H]2C[C@H](SSc3ccccc3[N+](=O)[O-])[C@@H](CO)O2)c(=O)[nH]c1=O > 10 µM

Dear colleague, I am looking for the recorded EC50 of the following molecule: C=CCSS[C@H]1C[C@H](n2cc(C)c(=O)[nH]c2=O)O[C@@H]1CO > 50 µM

###

# Test system: Moloney murine sarcoma virus
# Test summary: Inhibition of murine sarcoma virus-induced transformation of mouse embryo fibroblast C3H/3T3 cells after 6 days
# Run conditions: C3H/3T3, 144 h
Recorded pEC50 values for a group of molecules are listed next.
Answer as the number alone; pEC50 is minus log10 of concentration in mol/L.

Cc1cn([C@H]2C[C@H](SSc3ccc([N+](=O)[O-])cc3)[C@@H](CO)O2)c(=O)[nH]c1=O | 6.05
Cc1cn([C@H]2C[C@H](SSCCN)[C@@H](CO)O2)c(=O)[nH]c1=O | 4.20

Dear colleague, I am looking for the recorded pEC50 of the following molecule: C[C@H](Cn1cnc2c(N)ncnc21)OCP(=O)(O)O [TENOFOVIR ANHYDROUS] 6.64

Dear colleague, I am looking for the recorded pEC50 of the following molecule: Cc1cn([C@H]2C[C@H](SSc3ccccc3[N+](=O)[O-])[C@@H](CO)O2)c(=O)[nH]c1=O 5.96

Dear colleague, I am looking for the recorded pEC50 of the following molecule: Cc1cn([C@H]2C[C@H](SSCCO)[C@@H](CO)O2)c(=O)[nH]c1=O 5.23

###

# Test summary: Chemical stability assessed as half life in presence of dithiothreitol
# Type: physicochemical
Measurement name: half-life

Guide cases for half-life, answers given:
CCCCSS[C@H]1C[C@H](n2cc(C)c(=O)[nH]c2=O)O[C@@H]1CO | < 8 h
Cc1cn([C@H]2C[C@H](SSc3ccc([N+](=O)[O-])cc3)[C@@H](CO)O2)c(=O)[nH]c1=O | < 0.167 h
Cc1cn([C@H]2C[C@H](SSCCN)[C@@H](CO)O2)c(=O)[nH]c1=O | < 8 h
Cc1cn([C@H]2C[C@H](SSC(Cl)(Cl)Cl)[C@@H](CO)O2)c(=O)[nH]c1=O | < 1.5 h

Dear colleague, I am looking for the recorded half-life of the following compound: CCCCCCCCSS[C@H]1C[C@H](n2cc(C)c(=O)[nH]c2=O)O[C@@H]1CO < 8 h

Dear colleague, I am looking for the recorded half-life of the following compound: C=CCSS[C@H]1C[C@H](n2cc(C)c(=O)[nH]c2=O)O[C@@H]1CO < 8 h

Dear colleague, I am looking for the recorded half-life of the following compound: Cc1cn([C@H]2C[C@H](SSc3ccccc3[N+](=O)[O-])[C@@H](CO)O2)c(=O)[nH]c1=O < 0.167 h

Dear colleague, I am looking for the recorded half-life of the following compound: Cc1cn([C@H]2C[C@H](SSCCCCCCO)[C@@H](CO)O2)c(=O)[nH]c1=O < 8 h

Dear colleague, I am looking for the recorded half-life of the following compound: CSS[C@H]1C[C@H](n2cc(C)c(=O)[nH]c2=O)O[C@@H]1CO < 8 h

Dear colleague, I am looking for the recorded half-life of the following compound: CCCCCCSS[C@H]1C[C@H](n2cc(C)c(=O)[nH]c2=O)O[C@@H]1CO < 8 h

Dear colleague, I am looking for the recorded half-life of the following compound: Cc1cn([C@H]2C[C@H](SSCCO)[C@@H](CO)O2)c(=O)[nH]c1=O < 8 h

###

# Measurement target: Thymidine kinase, cytosolic (Homo sapiens, UniProt P04183)
# Sequence (P04183 whole entry): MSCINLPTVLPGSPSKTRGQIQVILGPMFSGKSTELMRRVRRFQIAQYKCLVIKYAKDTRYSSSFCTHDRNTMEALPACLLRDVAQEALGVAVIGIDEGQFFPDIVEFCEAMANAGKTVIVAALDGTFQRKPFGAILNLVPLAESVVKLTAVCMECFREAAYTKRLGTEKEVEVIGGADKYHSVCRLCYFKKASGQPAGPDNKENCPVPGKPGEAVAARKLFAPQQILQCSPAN
# Test summary: Inhibition of recombinant TK1-mediated phosphorylation of [CH3-3H]deoxythymidine in presence of dithiothreitol
Measurement name: IC50 (µM)

CSS[C@H]1C[C@H](n2cc(C)c(=O)[nH]c2=O)O[C@@H]1CO | 333
Cc1cn([C@H]2C[C@H](SSCCN)[C@@H](CO)O2)c(=O)[nH]c1=O | 418
Cc1cn([C@H]2C[C@H](SSC(Cl)(Cl)Cl)[C@@H](CO)O2)c(=O)[nH]c1=O | 365
Cc1cn([C@H]2C[C@H](SSCCO)[C@@H](CO)O2)c(=O)[nH]c1=O | 405

###

# Test summary: Chemical stability assessed as half life at pH 7.2 in methanol-water mixture
# Type: physicochemical
Measurement name: half-life

CCCCCCSS[C@H]1C[C@H](n2cc(C)c(=O)[nH]c2=O)O[C@@H]1CO | < 5 min

Dear colleague, I am looking for the recorded half-life of the following compound: CCCCCCCCSS[C@H]1C[C@H](n2cc(C)c(=O)[nH]c2=O)O[C@@H]1CO < 5 min

Dear colleague, I am looking for the recorded half-life of the following compound: Cc1cn([C@H]2C[C@H](SSC(Cl)(Cl)Cl)[C@@H](CO)O2)c(=O)[nH]c1=O < 5 min

Dear colleague, I am looking for the recorded half-life of the following compound: Cc1cn([C@H]2C[C@H](SSCCN)[C@@H](CO)O2)c(=O)[nH]c1=O < 5 min

Dear colleague, I am looking for the recorded half-life of the following compound: CSS[C@H]1C[C@H](n2cc(C)c(=O)[nH]c2=O)O[C@@H]1CO < 5 min

Dear colleague, I am looking for the recorded half-life of the following compound: Cc1cn([C@H]2C[C@H](SSCCO)[C@@H](CO)O2)c(=O)[nH]c1=O < 5 min

Dear colleague, I am looking for the recorded half-life of the following compound: C=CCSS[C@H]1C[C@H](n2cc(C)c(=O)[nH]c2=O)O[C@@H]1CO < 5 min

Dear colleague, I am looking for the recorded half-life of the following compound: CCCCSS[C@H]1C[C@H](n2cc(C)c(=O)[nH]c2=O)O[C@@H]1CO < 5 min

Dear colleague, I am looking for the recorded half-life of the following compound: Cc1cn([C@H]2C[C@H](SSc3ccccc3[N+](=O)[O-])[C@@H](CO)O2)c(=O)[nH]c1=O < 5 min

###

# Test summary: Cytotoxicity against human CEM/0 cells
# Type: cell-based, CCRF-CEM
Measurement name: CC50 (µM)
Response body: numeric value in µM, unit text excluded.

Guide cases for CC50, answers given:
CSS[C@H]1C[C@H](n2cc(C)c(=O)[nH]c2=O)O[C@@H]1CO | 102
Cc1cn([C@H]2C[C@H](SSc3ccc([N+](=O)[O-])cc3)[C@@H](CO)O2)c(=O)[nH]c1=O | 23

Dear colleague, I am looking for the recorded CC50 of the following compound: CCCCCCCCSS[C@H]1C[C@H](n2cc(C)c(=O)[nH]c2=O)O[C@@H]1CO 21

Dear colleague, I am looking for the recorded CC50 of the following compound: Cc1cn([C@H]2C[C@H](SSC(Cl)(Cl)Cl)[C@@H](CO)O2)c(=O)[nH]c1=O 103

Dear colleague, I am looking for the recorded CC50 of the following compound: Cc1cn([C@H]2C[C@H](SSCCCCCCO)[C@@H](CO)O2)c(=O)[nH]c1=O 52

Dear colleague, I am looking for the recorded CC50 of the following compound: CCCCSS[C@H]1C[C@H](n2cc(C)c(=O)[nH]c2=O)O[C@@H]1CO 23.3

Dear colleague, I am looking for the recorded CC50 of the following compound: Cc1cn([C@H]2C[C@H](SSCCO)[C@@H](CO)O2)c(=O)[nH]c1=O 347

Dear colleague, I am looking for the recorded CC50 of the following compound: CSS[C@H]1C[C@H](n2ccc(=O)[nH]c2=O)O[C@@H]1CO 170

Dear colleague, I am looking for the recorded CC50 of the following compound: CCCCCCSS[C@H]1C[C@H](n2cc(C)c(=O)[nH]c2=O)O[C@@H]1CO 39

Dear colleague, I am looking for the recorded CC50 of the following compound: CSS[C@H]1C[C@H](n2ccc(N)nc2=O)O[C@@H]1CO 111
